# PROTOCOL DESCRIPTION: VRT (0 to t) in male Sprague-Dawley rat at 2 mg/kg, iv measured for 0.083 to 12 hrs by LC-MS/MS analysis
# Type: ADME, organism-based
# TEST CONTEXT: in vivo, time 0.083-12 hrs
METRIC: VRT(t) (h²)
Answers are plain numbers, in h².

Notebook: `CCCNNC(=O)CCCCCCNC(=O)c1cnc(-c2ccc(NC(=O)OC(C)(C)C)cc2)s1` , VRT(t) read as 0.55

###

# PROTOCOL DESCRIPTION: Apparent volume of distribution in male Sprague-Dawley rat at 2 mg/kg, iv measured for 0.083 to 12 hrs by LC-MS/MS analysis
# Type: ADME, organism-based
# TEST CONTEXT: in vivo, time 0.083-12 hrs, read-out: Vz
METRIC: Vd (L/kg)
One number for each entry, in L/kg.

What the record says about `CCCNNC(=O)CCCCCCNC(=O)c1cnc(-c2ccc(NC(=O)OC(C)(C)C)cc2)s1` : Vd is 10.6

###

# PROTOCOL DESCRIPTION: AUC (0 to t) in male Sprague-Dawley rat at 20 mg/kg, po measured for 0.083 to 12 hrs by LC-MS/MS analysis
# Format: ADME, organism-based
# TEST CONTEXT: in vivo, time 0.083-12 hrs
METRIC: AUC(0-t) (ng·h/mL)
One number for each entry, in ng·h/mL.

AUC(0-t) for `CCCNNC(=O)CCCCCCNC(=O)c1cnc(-c2ccc(NC(=O)OC(C)(C)C)cc2)s1` is 30.8

###

# PROTOCOL DESCRIPTION: Antiproliferative activity against human HK-2 cells incubated for 72 hrs by MTT assay
Answer each item with its documented IC50 at 72 h.
Give bare numbers, in µM.

Solved cases (4 shown):
{"STRUCTURE SMILES": "Nc1ccccc1NC(=O)c1ccc(CNC(=O)OCc2cccnc2)cc1", "IC50 at 72 h (µM)": 13.5}
{"STRUCTURE SMILES": "CCCNNC(=O)CCCCCCNC(=O)c1cnc(-c2ccc(F)cc2F)s1", "IC50 at 72 h (µM)": 12.2}
{"STRUCTURE SMILES": "CCCNNC(=O)c1ccc(NC(=O)c2cnc(-c3ccccc3C)s2)cc1", "IC50 at 72 h (µM)": 11.9}
{"STRUCTURE SMILES": "CCCNNC(=O)c1ccc(NC(=O)c2cnc(-c3cc4ccc5cccc6ccc(c3)c4c56)s2)cc1", "IC50 at 72 h (µM)": 11.2}

Record IC50 at 72 h for all entries; do not skip any.
1. CCCNNC(=O)CCCCCCNC(=O)c1cnc(-c2ccc(Oc3ccccc3)cc2)s1
2. CCCNNC(=O)CCCCCCNC(=O)c1cnc(-c2ccc(Br)cc2)s1
3. CCCNNC(=O)CCCCCNC(=O)c1cnc(-c2ccc(Oc3ccccc3)cc2)s1
4. CCCNNC(=O)CCCCCCNC(=O)c1cnc(-c2ccc(NC(=O)OC(C)(C)C)cc2)s1
5. CCCNNC(=O)c1ccc(NC(=O)c2cnc(-c3ccc(OC(F)(F)F)cc3)s2)cc1

## Result
14.1
13.9
10.8
11.5
10.9

Go through the list and state IC50 at 72 h for each entry.
1. CCCNNC(=O)CCCCCCNC(=O)c1cnc(-c2ccc3[nH]ccc3c2)s1
2. CCCNNC(=O)CCCCCCNC(=O)c1cnc(-c2ccc3ccccc3c2)s1

## Result
1: 10.1; 2: 10.8

###

# Tested on: HCT-116
# PROTOCOL DESCRIPTION: cells
# Type: functional
# TEST CONTEXT: Homo sapiens, time 72 hrs
METRIC: inhibition at 10 µM (%)
One number for each entry, in %.

Here is how some molecules turned out for inhibition at 10 µM.
{"STRUCTURE SMILES": "CCCNNC(=O)CCCCCNC(=O)c1cnc(-c2ccc3ccccc3c2)s1", "UNIT NAME": "%", "inhibition at 10 µM": 58.5}
{"STRUCTURE SMILES": "CCCNNC(=O)c1ccc(NC(=O)c2cnc(-c3ccccc3C)s2)cc1", "UNIT NAME": "%", "inhibition at 10 µM": 67.1}
{"STRUCTURE SMILES": "CCCNNC(=O)CCCCCNC(=O)c1cnc(-c2ccc(Cl)cc2)s1", "UNIT NAME": "%", "inhibition at 10 µM": 58.2}
{"STRUCTURE SMILES": "CCCCCCCCCNNC(=O)CCCCCCNC(=O)c1cnc(-c2ccc(NC(=O)OC(C)(C)C)cc2)s1", "UNIT NAME": "%", "inhibition at 10 µM": 59.7}

Consider now this further molecule.
// inhibition at 10 µM value for `C=CCNNC(=O)CCCCCCNC(=O)c1cnc(-c2ccc(NC(=O)OC(C)(C)C)cc2)s1` : 58.2

###

# PROTOCOL DESCRIPTION: Oral bioavailability in male Sprague-Dawley rat at 20 mg/kg measured for 0.083 to 12 hrs by LC-MS/MS analysis
# Type: ADME, organism-based
# TEST CONTEXT: in vivo, time 0.083-12 hrs
METRIC: bioavailability (%)
Give bare numbers, in %.

Entry `CCCNNC(=O)CCCCCCNC(=O)c1cnc(-c2ccc(NC(=O)OC(C)(C)C)cc2)s1` ; bioavailability = 0.49

###

# PROTOCOL DESCRIPTION: AUC (0 to infinity) in male Sprague-Dawley rat at 20 mg/kg, po measured for 0.083 to 12 hrs by LC-MS/MS analysis
# Type: ADME, organism-based
# TEST CONTEXT: in vivo, time 0.083-12 hrs
METRIC: AUC(0-inf) (ng·h/mL)
Numbers only, in ng·h/mL.

Record `CCCNNC(=O)CCCCCCNC(=O)c1cnc(-c2ccc(NC(=O)OC(C)(C)C)cc2)s1` , field AUC(0-inf): 32.1

###

# PROTOCOL DESCRIPTION: Half life in male Sprague-Dawley rat at 2 mg/kg, iv measured for 0.083 to 12 hrs by LC-MS/MS analysis
# Type: ADME, organism-based
# TEST CONTEXT: in vivo, time 0.083-12 hrs
METRIC: half-life (h)
Answers are plain numbers, in h.

Form field half-life, entry `CCCNNC(=O)CCCCCCNC(=O)c1cnc(-c2ccc(NC(=O)OC(C)(C)C)cc2)s1` : 2.21

###

# System: HCT-116
# PROTOCOL DESCRIPTION: cells
# Assay type: functional
# TEST CONTEXT: Homo sapiens, time 72 hrs
For each of the compounds below, state its inhibition at 10 µM.
Give bare numbers, in %.

{"STRUCTURE SMILES": "CCCNNC(=O)CCCCCCNC(=O)c1cnc(-c2ccc(OC(F)(F)F)c(OC(F)(F)F)c2)s1", "TEST TARGET": "HCT-116", "UNIT NAME": "%", "inhibition at 10 µM": 88.8}

Hello, I would appreciate it if you could give inhibition at 10 µM for each entry below.
1. CCCNNC(=O)CCCCCCNC(=O)c1cnc(-c2ccc(F)cc2F)s1
2. CCCNNC(=O)CCCCCCNC(=O)c1cnc(-c2cccc(C)c2)s1
3. CCCNNC(=O)CCCCCCNC(=O)c1cnc(-c2ccc(Oc3ccccc3)cc2)s1
4. CCCNNC(=O)CCCCCNC(=O)c1cnc(-c2c[nH]c3ccccc23)s1

## Result
1: 79.7; 2: 61.7; 3: 73.1; 4: 36.5

###

# TEST TARGET: Histone deacetylase 3 (Homo sapiens)
# Sequence (O15379 whole entry): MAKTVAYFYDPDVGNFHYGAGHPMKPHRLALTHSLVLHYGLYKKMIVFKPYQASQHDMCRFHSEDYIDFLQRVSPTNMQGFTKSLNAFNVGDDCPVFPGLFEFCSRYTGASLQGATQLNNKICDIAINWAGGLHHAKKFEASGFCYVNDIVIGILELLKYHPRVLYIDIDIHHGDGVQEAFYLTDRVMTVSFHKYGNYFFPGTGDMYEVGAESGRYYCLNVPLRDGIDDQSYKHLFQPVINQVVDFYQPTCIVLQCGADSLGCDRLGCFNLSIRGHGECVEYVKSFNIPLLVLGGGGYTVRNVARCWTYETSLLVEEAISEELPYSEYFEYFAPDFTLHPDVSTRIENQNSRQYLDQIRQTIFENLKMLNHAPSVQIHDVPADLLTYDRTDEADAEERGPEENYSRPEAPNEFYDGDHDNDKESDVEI
METRIC: IC50 (µM)
Give bare numbers, in µM.

Examples from the recorded data:
{"STRUCTURE SMILES": "CCCNNC(=O)c1ccc(NC(=O)c2cnc(-c3ccc(OC(F)(F)F)cc3)s2)cc1", "IC50 (µM)": 0.4}
{"STRUCTURE SMILES": "CCCNNC(=O)CCCCCNC(=O)c1cnc(-c2ccc(Oc3ccccc3)cc2)s1", "IC50 (µM)": 1.6}
{"STRUCTURE SMILES": "CCCNNC(=O)CCCCCCNC(=O)c1cnc(-c2ccc(Oc3ccccc3)cc2)s1", "IC50 (µM)": 1.88}
{"STRUCTURE SMILES": "CCCNNC(=O)CCCCCCNC(=O)c1cnc(-c2ccc3[nH]ccc3c2)s1", "IC50 (µM)": 0.42}
{"STRUCTURE SMILES": "CCCNNC(=O)c1ccc(NC(=O)c2cnc(-c3ccccc3C)s2)cc1", "IC50 (µM)": 0.87}
{"STRUCTURE SMILES": "CCCNNC(=O)CCCCCCNC(=O)c1cnc(-c2ccc3ccccc3c2)s1", "IC50 (µM)": 0.55}

--- query ---
Record `CCCNNC(=O)CCCCCCNC(=O)c1cnc(-c2ccc(Br)cc2)s1` , field IC50: 3.43

###

# TEST TARGET: Histone deacetylase 1 (Homo sapiens, UniProt Q13547)
# Sequence (Q13547 whole entry): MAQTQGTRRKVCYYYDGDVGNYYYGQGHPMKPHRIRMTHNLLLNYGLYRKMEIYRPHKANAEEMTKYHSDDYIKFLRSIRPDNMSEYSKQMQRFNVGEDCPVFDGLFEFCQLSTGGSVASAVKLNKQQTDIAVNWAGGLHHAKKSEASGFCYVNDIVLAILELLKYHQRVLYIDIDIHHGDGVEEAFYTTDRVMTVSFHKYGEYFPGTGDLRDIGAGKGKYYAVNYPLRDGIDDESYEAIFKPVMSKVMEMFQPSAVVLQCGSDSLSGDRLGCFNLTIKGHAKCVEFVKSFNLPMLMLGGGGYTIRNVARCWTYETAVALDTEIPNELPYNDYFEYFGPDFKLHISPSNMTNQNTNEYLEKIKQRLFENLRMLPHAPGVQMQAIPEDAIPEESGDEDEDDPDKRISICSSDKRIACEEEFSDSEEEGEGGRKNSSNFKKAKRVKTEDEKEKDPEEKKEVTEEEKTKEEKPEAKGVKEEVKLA
METRIC: IC50 (µM)
Numbers only, in µM.

{"STRUCTURE SMILES": "CCCNNC(=O)CCCCCCNC(=O)c1cnc(-c2ccc(F)cc2F)s1", "METRIC": "IC50", "UNIT NAME": "µM", "MEASUREMENT": 0.89}
{"STRUCTURE SMILES": "CCCNNC(=O)c1ccc(NC(=O)c2cnc(-c3ccccc3C)s2)cc1", "METRIC": "IC50", "UNIT NAME": "µM", "MEASUREMENT": 1.62}

// recorded IC50 for `CCCNNC(=O)CCCCCCNC(=O)c1cnc(-c2ccc3[nH]ccc3c2)s1` : 1.57
